B1: GNB5 (parent)
chain: DINSVRYYPSGDAFASGSDDATCR

# Variants of: B1
# assay.text: protein stability index of a GFP-peptide fusion (GPS, HEK-293T) (PSI 1-6); higher = more stable;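 also: lentivirally expressed fusions sorted by FACS into six bins by GFP to DsRed ratio, PSI derived from sequencing read proportions per bin multiplied by bin number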
# experimental.context: c terminus: a fixed tail appended
readout.kind: protein stability index

[
  {
    "sequence.entry": "DINSVRYYPSGDAFASGSDDLTCR [A21L]",
    "assay.result": 3.82
  },
  {
    "sequence.entry": "DINSVRYYPSGDAFGSGSDDATCR [A15G]",
    "assay.result": 3.51
  },
  {
    "sequence.entry": "DINSVRYYPSGDAFDSGSDDATCR [A15D]",
    "assay.result": 4.16
  },
  {
    "sequence.entry": "DINSKRYYPSGDAFASGSDDATCR [V5K]",
    "assay.result": 3.91
  },
  {
    "sequence.entry": "DINSVRYYPSGDAFASGSDDATCM [R24M]",
    "assay.result": 4.03
  },
  {
    "sequence.entry": "DINSVRYYPSGDAFASGSDVATCR [D20V]",
    "assay.result": 3.27
  },
  {
    "sequence.entry": "DINSVRYYPSGDAFASGSDDAMCR [T22M]",
    "assay.result": 3.47
  },
  {
    "sequence.entry": "DINSVRYTPSGDAFASGSDDATCR [Y8T]",
    "assay.result": 4.45
  },
  {
    "sequence.entry": "DINSVRYYWSGDAFASGSDDATCR [P9W]",
    "assay.result": 3.23
  },
  {
    "sequence.entry": "DINSVRYYPSGDAFASGKDDATCR [S18K]",
    "assay.result": 3.55
  },
  {
    "sequence.entry": "DINSVRYYPSGDAFASGSDDATGR [C23G]",
    "assay.result": 4.39
  },
  {
    "sequence.entry": "DIVSVRYYPSGDAFASGSDDATCR [N3V]",
    "assay.result": 3.56
  },
  {
    "sequence.entry": "DINSVRYYPSGIAFASGSDDATCR [D12I]",
    "assay.result": 3.08
  },
  {
    "sequence.entry": "DINSVRYYPSGDAFASWSDDATCR [G17W]",
    "assay.result": 3.07
  },
  {
    "sequence.entry": "DINSVRYYPSGDAFASGSDDATAR [C23A]",
    "assay.result": 4.53
  },
  {
    "sequence.entry": "DINSVRYYPSGEAFASGSDDATCR [D12E]",
    "assay.result": 3.61
  },
  {
    "sequence.entry": "DINSVRYYPSGDAFASGSDEATCR [D20E]",
    "assay.result": 3.94
  },
  {
    "sequence.entry": "DINSVRYYPSGDAFFSGSDDATCR [A15F]",
    "assay.result": 2.83
  },
  {
    "sequence.entry": "DINSVRYYPSGDSFASGSDDATCR [A13S]",
    "assay.result": 3.88
  },
  {
    "sequence.entry": "DINSVRYYPSGDHFASGSDDATCR [A13H]",
    "assay.result": 4.02
  },
  {
    "sequence.entry": "DINSVRYYPSGDAFASYSDDATCR [G17Y]",
    "assay.result": 3.29
  },
  {
    "sequence.entry": "DINSVRYYPSGDAFASGSDDAACR [T22A]",
    "assay.result": 3.92
  },
  {
    "sequence.entry": "DINSVRYYPSGDAFASGSDDAHCR [T22H]",
    "assay.result": 4.06
  },
  {
    "sequence.entry": "DINSGRYYPSGDAFASGSDDATCR [V5G]",
    "assay.result": 3.77
  },
  {
    "sequence.entry": "DINSVRYYPSGQAFASGSDDATCR [D12Q]",
    "assay.result": 3.46
  },
  {
    "sequence.entry": "DINSVRWYPSGDAFASGSDDATCR [Y7W]",
    "assay.result": 3.11
  },
  {
    "sequence.entry": "DINSVRYYPSGDAFPSGSDDATCR [A15P]",
    "assay.result": 3.92
  },
  {
    "sequence.entry": "DINSVRYYPSGDAFASTSDDATCR [G17T]",
    "assay.result": 3.63
  },
  {
    "sequence.entry": "DINSVRYYPSGDAFAMGSDDATCR [S16M]",
    "assay.result": 3.29
  },
  {
    "sequence.entry": "DINSVRYWPSGDAFASGSDDATCR [Y8W]",
    "assay.result": 4.24
  },
  {
    "sequence.entry": "DINSVRYYPSGDAFASGADDATCR [S18A]",
    "assay.result": 3.35
  },
  {
    "sequence.entry": "DINSVRYYPSGDAFASGMDDATCR [S18M]",
    "assay.result": 3.49
  },
  {
    "sequence.entry": "DINSVRYYPSGDAFASGSDKATCR [D20K]",
    "assay.result": 3.06
  },
  {
    "sequence.entry": "DINSVRYYPSGDAFASFSDDATCR [G17F]",
    "assay.result": 2.93
  },
  {
    "sequence.entry": "DINSVPYYPSGDAFASGSDDATCR [R6P]",
    "assay.result": 4.29
  },
  {
    "sequence.entry": "DINSVRYYPSGPAFASGSDDATCR [D12P]",
    "assay.result": 3.34
  },
  {
    "sequence.entry": "DINSVRYYPSQDAFASGSDDATCR [G11Q]",
    "assay.result": 3.91
  },
  {
    "sequence.entry": "DINSVRYYPSGDAFASGSDLATCR [D20L]",
    "assay.result": 3.15
  },
  {
    "sequence.entry": "DINSVRYYPSGDAFACGSDDATCR [S16C]",
    "assay.result": 3.66
  },
  {
    "sequence.entry": "DINSVRYYPSGDAFASHSDDATCR [G17H]",
    "assay.result": 3.4
  },
  {
    "sequence.entry": "DINSVRYYPSGDAFASGVDDATCR [S18V]",
    "assay.result": 3.33
  },
  {
    "sequence.entry": "DINSVRYYPSKDAFASGSDDATCR [G11K]",
    "assay.result": 3.68
  },
  {
    "sequence.entry": "DINSVRVYPSGDAFASGSDDATCR [Y7V]",
    "assay.result": 4.51
  },
  {
    "sequence.entry": "QINSVRYYPSGDAFASGSDDATCR [D1Q]",
    "assay.result": 4.23
  },
  {
    "sequence.entry": "DINSVRYYPSGDIFASGSDDATCR [A13I]",
    "assay.result": 3.28
  },
  {
    "sequence.entry": "DINSVRYYPSGDAFASGSDDCTCR [A21C]",
    "assay.result": 3.82
  },
  {
    "sequence.entry": "DINSVRYYPSGDTFASGSDDATCR [A13T]",
    "assay.result": 4
  },
  {
    "sequence.entry": "DINSVRYYPSGDAFASGSDDATCD [R24D]",
    "assay.result": 4.32
  },
  {
    "sequence.entry": "DINSVRYYPSGDAFASGSDDATCQ [R24Q]",
    "assay.result": 4.68
  },
  {
    "sequence.entry": "DINSVRYYPSGRAFASGSDDATCR [D12R]",
    "assay.result": 3.33
  },
  {
    "sequence.entry": "DINSVRYMPSGDAFASGSDDATCR [Y8M]",
    "assay.result": 4.55
  },
  {
    "sequence.entry": "DILSVRYYPSGDAFASGSDDATCR [N3L]",
    "assay.result": 3.35
  },
  {
    "sequence.entry": "DINSVRYYPSGDAFASGSDDATRR [C23R]",
    "assay.result": 3.92
  },
  {
    "sequence.entry": "DINVVRYYPSGDAFASGSDDATCR [S4V]",
    "assay.result": 2.55
  },
  {
    "sequence.entry": "DINSVRYYDSGDAFASGSDDATCR [P9D]",
    "assay.result": 4.43
  },
  {
    "sequence.entry": "DINSVRYYPSGDAFASGSDDATFR [C23F]",
    "assay.result": 3.95
  },
  {
    "sequence.entry": "DINSVRYYPSGDAFAWGSDDATCR [S16W]",
    "assay.result": 3.15
  },
  {
    "sequence.entry": "DINSVRYYPSGDAFASDSDDATCR [G17D]",
    "assay.result": 4.4
  },
  {
    "sequence.entry": "DINSVRYYPSGDAFASGSDDATCY [R24Y]",
    "assay.result": 3.99
  },
  {
    "sequence.entry": "LINSVRYYPSGDAFASGSDDATCR [D1L]",
    "assay.result": 3.73
  },
  {
    "sequence.entry": "DINSVRYYPSGYAFASGSDDATCR [D12Y]",
    "assay.result": 3.19
  },
  {
    "sequence.entry": "DIDSVRYYPSGDAFASGSDDATCR [N3D]",
    "assay.result": 5.08
  },
  {
    "sequence.entry": "DINSVRYYPSGDAFASGSDDNTCR [A21N]",
    "assay.result": 4.16
  },
  {
    "sequence.entry": "DINSVRYYPSGDAFWSGSDDATCR [A15W]",
    "assay.result": 3.29
  },
  {
    "sequence.entry": "DINSVRYYCSGDAFASGSDDATCR [P9C]",
    "assay.result": 3.17
  },
  {
    "sequence.entry": "DIYSVRYYPSGDAFASGSDDATCR [N3Y]",
    "assay.result": 3.68
  },
  {
    "sequence.entry": "DISSVRYYPSGDAFASGSDDATCR [N3S]",
    "assay.result": 4.07
  },
  {
    "sequence.entry": "DINMVRYYPSGDAFASGSDDATCR [S4M]",
    "assay.result": 4.21
  },
  {
    "sequence.entry": "DINSVRYYPSGDAFVSGSDDATCR [A15V]",
    "assay.result": 3.91
  },
  {
    "sequence.entry": "DINPVRYYPSGDAFASGSDDATCR [S4P]",
    "assay.result": 4.32
  },
  {
    "sequence.entry": "DINSVRYYPSGDAFASGSDDATCC [R24C]",
    "assay.result": 4.06
  },
  {
    "sequence.entry": "DINSVRYYPSGDAFADGSDDATCR [S16D]",
    "assay.result": 4.27
  },
  {
    "sequence.entry": "DINSVRYIPSGDAFASGSDDATCR [Y8I]",
    "assay.result": 4.5
  },
  {
    "sequence.entry": "DINSVRYYPSGDAFASQSDDATCR [G17Q]",
    "assay.result": 3.75
  },
  {
    "sequence.entry": "DIISVRYYPSGDAFASGSDDATCR [N3I]",
    "assay.result": 3.57
  },
  {
    "sequence.entry": "DINSVRYYPSGDAFASGSDCATCR [D20C]",
    "assay.result": 3.53
  },
  {
    "sequence.entry": "DWNSVRYYPSGDAFASGSDDATCR [I2W]",
    "assay.result": 3.99
  },
  {
    "sequence.entry": "GINSVRYYPSGDAFASGSDDATCR [D1G]",
    "assay.result": 4.36
  },
  {
    "sequence.entry": "DINYVRYYPSGDAFASGSDDATCR [S4Y]",
    "assay.result": 3.75
  },
  {
    "sequence.entry": "DINSVRYYPSGDAFASGSDDATCV [R24V]",
    "assay.result": 3.92
  },
  {
    "sequence.entry": "DINSVRYYPSGDAFLSGSDDATCR [A15L]",
    "assay.result": 3.73
  },
  {
    "sequence.entry": "DINSVRYYPSGDAFASGSDDWTCR [A21W]",
    "assay.result": 2.79
  },
  {
    "sequence.entry": "DINSVRYYPSGDAFASGSDDARCR [T22R]",
    "assay.result": 3.57
  },
  {
    "sequence.entry": "DINSVRYYPSGDAFASGSDDATCT [R24T]",
    "assay.result": 4.41
  },
  {
    "sequence.entry": "DINSVRYYSSGDAFASGSDDATCR [P9S]",
    "assay.result": 4.17
  },
  {
    "sequence.entry": "DINSVRYVPSGDAFASGSDDATCR [Y8V]",
    "assay.result": 4.55
  },
  {
    "sequence.entry": "KINSVRYYPSGDAFASGSDDATCR [D1K]",
    "assay.result": 3.85
  },
  {
    "sequence.entry": "DINSVRYYPAGDAFASGSDDATCR [S10A]",
    "assay.result": 3.76
  },
  {
    "sequence.entry": "DINSVRQYPSGDAFASGSDDATCR [Y7Q]",
    "assay.result": 4.21
  },
  {
    "sequence.entry": "DINSVRYYPSGDAFASGSDDAKCR [T22K]",
    "assay.result": 4.07
  },
  {
    "sequence.entry": "DINSVRYYPSGDAFASGSDDATCN [R24N]",
    "assay.result": 3.59
  }
]
